The values you see were collected from the supplement of paper PMC10567573.

B1: GMCL1 (parent)
chain: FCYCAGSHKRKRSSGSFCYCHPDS

Variants of: B1
ASSAY_EXPLANATION: protein stability index of a GFP-peptide fusion (GPS, HEK-293T) (PSI 1-6); higher = more stable;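 further: lentivirally expressed fusions sorted by FACS into six bins by GFP to DsRed ratio, PSI derived from sequencing read proportions per bin multiplied by bin number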
CONDITIONS_USED: c terminus: a fixed tail appended
Quick rule: protein stability index of at least 2 means MET, below that means NOT MET.

Qu. Reported protein stability index at or above 2? FCYCAGSHKRKRSSGSFAYCHPDS [C18A]
Ans. MET

Qu. Check ACYCAGSHKRKRSSGSFCYCHPDS [F1A] too.
Ans. MET

Qu. Check FCGCAGSHKRKRSSGSFCYCHPDS [Y3G] too.
Ans. NOT MET

Qu. Check FCYCAGSHKRKRSSMSFCYCHPDS [G15M] too.
Ans. NOT MET

Qu. Check FCYCAGSHKRKRSSGSFTYCHPDS [C18T] too.
Ans. NOT MET

Qu. Check FCYCAGSHKRKRSSGSFCYCTPDS [H21T] too.
Ans. MET

Qu. Check FCYCAGSHKRKRSSGSFCYCHPGS [D23G] too.
Ans. MET

Qu. Check FCYAAGSHKRKRSSGSFCYCHPDS [C4A] too.
Ans. NOT MET

Qu. Check FCYCAGSHKRKRSSGSFCYCHPDQ [S24Q] too.
Ans. MET
